Assign optical density to each entry below.
target: T1, human ACVR2A (human, UniProt P27037 20-135, limits assumed); experiment: ELISA; note: test concentration or dose not given here
T1 construct: coated antigen of the initial ELISA; also called activin receptor, type II A
T1 sequence (P27037 20-135 limits assumed): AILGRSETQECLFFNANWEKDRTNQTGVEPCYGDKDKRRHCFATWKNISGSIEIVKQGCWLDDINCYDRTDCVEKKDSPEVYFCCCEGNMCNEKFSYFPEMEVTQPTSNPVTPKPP
Give bare numbers, in OD.

[in] Data request, read-out optical density, for 373_C07 (antibody, V domains shown, Group III) VH: EVQLLESGGGLVQPGGSLRLSCAASGFTFDSYSMNWVRQAPGKGLEWVAGINYNSGYTSYADSVKGRFTISRDNSKNTLYLQMNSLRAEDTAVYYCARGANWHDTHLDYWGQGTLVTVSS VL: DIQMTQSPSSLSASVGDRVTITCRASQSILTYLNWYQQKPGKAPKLVIYAATSRASGVPSRFSGSGSGTDFTLTISSLQPEDFATYYCQQSYETPLTFGGGTKVEIK
[out] 3.57

Consider the following items and state reported optical density for each.
1. 367_E05 (antibody, V domains shown, Group III) VH: EVQLLESGGGLVQPGGSLRLSCAASGFTFSSYGMNWVRQAPGKGLEWVAGINYNGGYTSYADSVKGRFTISRDNSKNTLYLQMNSLRAEDTAVYYCARGANWHDTHLDYWGQGTLVTVSS VL: DIQMTQSPSSLSASVGDRVTITCRASQSILSYLNWYQQKPGKAPKLLIYAATSRHSGVPSRFSGSGSGTDFTLTISSLQPEDFATYYCQQSYDSPLTFGGGTKVEIK
2. 374_H11 (antibody, V domains shown, Group III) VH: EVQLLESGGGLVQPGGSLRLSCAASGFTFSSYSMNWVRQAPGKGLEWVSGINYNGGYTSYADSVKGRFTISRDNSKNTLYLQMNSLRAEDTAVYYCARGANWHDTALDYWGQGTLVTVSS VL: DIQMTQSPSSLSASVGDRVTITCRASQSIISYVNWYQQKPGKAPKLVIYAATSLHSGVPSRFSGSGSGTDFTLTISSLQPEDFATYYCQQSYSNPLTFGGGTKVEIK

[out]
1. 2.35
2. 3.27
